Exercise: state measured EC50 for each of the compounds provided.
- Target Or Test System: BRD3-BD1 (Homo sapiens (Human), UniProt Q15059)
- Sequence (Q15059 34-140): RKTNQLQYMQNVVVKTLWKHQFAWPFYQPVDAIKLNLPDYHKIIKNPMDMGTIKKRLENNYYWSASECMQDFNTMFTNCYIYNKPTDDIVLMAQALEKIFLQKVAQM
- Run Description: competitive TR-FRET assay, BET-BD with acetylated peptide ligand
- Type: binding
- Condition: BRD3-BD1; Table 11 additional modifications; read-out: 3.1 EC50

What value of EC50 has been reported for the following compound? CC(=O)N1c2ccc(-c3cccc(NC(=O)C(C)C)c3)cc2[C@H](NC(=O)OC(C)C)C[C@@H]1C [compound 98]
0.24 µM

What value of EC50 has been reported for the following compound? CC(=O)Nc1cccc(-c2ccc3c(c2)[C@H](NC2CCOCC2)C[C@H](C)N3C(C)=O)c1 [compound 36]
1.4 µM

What value of EC50 has been reported for the following compound? CC(=O)Nc1cccc(-c2ccc3c(c2)[C@H](Nc2ccc(-c4nnnn4C)cc2)C[C@H](C)N3C(C)=O)c1 [compound 28]
> 52 µM

What value of EC50 has been reported for the following compound? CC(=O)Nc1cccc(-c2ccc3c(c2)[C@H](Nc2ccc(C(=O)CO)cc2)C[C@H](C)N3C(C)=O)c1 [compound 30]
9.8 µM

What value of EC50 has been reported for the following compound? CC(=O)N1c2ccc(-c3cccn(C)c3=O)cc2[C@H](NC(=O)OC(C)C)C[C@@H]1C [compound 87]
13 µM

What value of EC50 has been reported for the following compound? CC(=O)Nc1cccc(-c2ccc3c(c2)[C@H](NC(=O)c2ccc(Cl)cc2)C[C@H](C)N3C(C)=O)c1 [compound 72]
27 µM

What value of EC50 has been reported for the following compound? CC(=O)Nc1cccc(-c2ccc3c(c2)[C@H](Nc2ccc(N(C)C(C)=O)cc2)C[C@H](C)N3C(C)=O)c1 [compound 11]
1.6 µM

What value of EC50 has been reported for the following compound? CC(=O)Nc1cccc(-c2ccc3c(c2)[C@H](NC(=O)c2ccc(C(F)(F)F)cc2)C[C@H](C)N3C(C)=O)c1 [compound 69]
75 µM

What value of EC50 has been reported for the following compound? C#CCCCC(=O)Nc1cccc(-c2ccc3c(c2)[C@H](Nc2ccc(C(=O)OC)cc2)C[C@H](C)N3C(C)=O)c1 [compound 138]
1.8 µM

What value of EC50 has been reported for the following compound? COc1ccc(C(=O)N[C@@H]2C[C@H](C)N(C(C)=O)c3ccc(-c4cccc(NC(C)=O)c4)cc32)cc1 [compound 66]
77 µM

What value of EC50 has been reported for the following compound? CC(=O)Nc1cccc(-c2ccc3c(c2)[C@H](Nc2cccc4ccccc24)C[C@H](C)N3C(C)=O)c1 [compound 32]
> 23 µM

What value of EC50 has been reported for the following compound? COC(=O)c1ccc(N[C@@H]2C[C@H](C)N(C(C)=O)c3ccc(-c4cccc(NCC5CC5)c4)cc32)cc1 [compound 141]
1.7 µM

What value of EC50 has been reported for the following compound? CC(=O)Nc1cccc(-c2ccc3c(c2)[C@H](NCc2ccc(C(F)(F)F)cc2)C[C@H](C)N3C(C)=O)c1 [compound 75]
36 µM

What value of EC50 has been reported for the following compound? CC(=O)N1c2ccc(-c3cccc(NC(=O)C4CCCCC4)c3)cc2[C@H](NC(=O)OC(C)C)C[C@@H]1C [compound 99]
0.25 µM

What value of EC50 has been reported for the following compound? COc1cc(F)ccc1N[C@@H]1C[C@H](C)N(C(C)=O)c2ccc(-c3cc[nH]n3)cc21 [compound 170]
14 µM

What value of EC50 has been reported for the following compound? CC(=O)N1c2ccc(-c3cccc(N(CCC(C)C)CCC(C)C)c3)cc2[C@H](Nc2ccccc2OC(F)(F)F)C[C@@H]1C [compound 148]
> 90 µM

What value of EC50 has been reported for the following compound? CC(=O)Nc1cccc(-c2ccc3c(c2)[C@H](Nc2ccc4c(c2)OCO4)C[C@H](C)N3C(C)=O)c1 [compound 14]
1.19 µM

What value of EC50 has been reported for the following compound? CC(=O)N1c2ccc(-c3cc4ccccc4[nH]3)cc2[C@H](NC(=O)OC(C)C)C[C@@H]1C [compound 92]
0.41 µM

What value of EC50 has been reported for the following compound? CC(=O)N1c2ccc(-c3cccc(NC(=O)OC(C)(C)C)c3)cc2[C@H](NC(=O)OC(C)C)C[C@@H]1C [compound 84]
0.99 µM

What value of EC50 has been reported for the following compound? CC(=O)Nc1cccc(-c2ccc3c(c2)[C@H](Nc2ccc4ncccc4c2)C[C@H](C)N3C(C)=O)c1 [compound 13]
1.1 µM

What value of EC50 has been reported for the following compound? CC(=O)N1c2ccc(-c3cccc(NC(=O)OC(C)(C)C)c3)cc2[C@H](Nc2ccc(Cl)cc2)C[C@@H]1C [compound 134]
10 µM

What value of EC50 has been reported for the following compound? CC(=O)N1c2ccc(-c3cccc(NS(C)(=O)=O)c3)cc2[C@H](NC(=O)OC(C)C)C[C@@H]1C [compound 93]
0.15 µM

What value of EC50 has been reported for the following compound? CC(=O)N1c2ccc(-c3ccnn3C)cc2[C@H](NC(=O)OC(C)C)C[C@@H]1C [compound 97]
7.8 µM

What value of EC50 has been reported for the following compound? CC(=O)N1c2ccc(-c3ccc(Oc4ccccc4)cc3)cc2[C@H](NC(=O)OC(C)C)C[C@@H]1C [compound 61]
8.8 µM

Data origin: patent US11028051B2
